target: T1, human factor X (human, UniProt P00742 41-179; P00742 183-488); assay: SPR, IgG captured on anti-human IgG Fc, human FX as analyte
T1 construct: Zymogen used as analyte in SPR; also called FX; Human FX (MW ~58 KDa)
T1 sequence (P00742 41-179, chain 1 of 2): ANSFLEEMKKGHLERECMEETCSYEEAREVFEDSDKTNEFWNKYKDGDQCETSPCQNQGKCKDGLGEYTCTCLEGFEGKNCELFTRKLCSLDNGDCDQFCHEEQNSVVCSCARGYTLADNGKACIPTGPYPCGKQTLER
T1 sequence (P00742 183-488, chain 2 of 2): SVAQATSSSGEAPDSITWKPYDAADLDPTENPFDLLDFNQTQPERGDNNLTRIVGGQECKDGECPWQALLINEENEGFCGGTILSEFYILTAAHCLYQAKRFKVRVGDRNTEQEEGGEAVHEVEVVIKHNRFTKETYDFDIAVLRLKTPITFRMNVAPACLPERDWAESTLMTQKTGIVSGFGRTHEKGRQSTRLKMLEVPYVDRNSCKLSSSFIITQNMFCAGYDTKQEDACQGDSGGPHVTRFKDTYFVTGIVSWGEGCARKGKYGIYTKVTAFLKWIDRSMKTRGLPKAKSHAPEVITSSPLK
result-type: koff (s⁻¹)

binder	data-value
TINA-0210.0128 (antibody, V domains shown, Monospecific IgG4PE) VH: QVQLVQSGAEVKKPGASVKVSCKASRYSFTSYYMHWVRQAPGQGLEWMGIINPKSGSTSYAQKFQGRVTMTRDTSTSTVYMELNSLRSEDTAVYYCARDGYGSSSRCLQLWGQGTLVTVSS VL: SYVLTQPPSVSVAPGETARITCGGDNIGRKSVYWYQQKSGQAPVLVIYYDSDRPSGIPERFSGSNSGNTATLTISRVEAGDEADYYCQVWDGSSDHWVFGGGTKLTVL	0.0744
TINA-0204.0128 (antibody, V domains shown, Monospecific IgG4PE) VH: QVQLVQSGAEVQKTGASVKVSCKASRYSFTSYYMHWVRQAPGQGLEWMGIINPKSGSTSYAQKFQGRVTMTRDTSTSTVYMELSSLRSEDTAVYYCARDGYGSSSRCLQLWGQGTLVTVSS VL: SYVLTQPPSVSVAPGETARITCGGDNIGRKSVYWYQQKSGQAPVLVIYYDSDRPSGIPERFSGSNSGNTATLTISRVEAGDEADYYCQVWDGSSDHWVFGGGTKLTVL	0.0785
TINA-0213.0128 (antibody, V domains shown, Monospecific IgG4PE) VH: QVQLVQSGAEVKKTGASVKVSCKASRYSFTSYYMHWVRQAPGQGLEWMGIINPKSGTTSYAQKFQGRVTMTRDTSTSTVYMELSSLRSEDTAVYYCARDGYGSSSRCLQLWGQGTLVTVSS VL: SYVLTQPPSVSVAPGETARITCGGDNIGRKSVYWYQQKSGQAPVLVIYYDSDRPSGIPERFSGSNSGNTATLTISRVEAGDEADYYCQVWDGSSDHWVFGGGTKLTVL	0.133
TINA-0200.0128 (antibody, V domains shown, Monospecific IgG4PE) VH: QVQLVQSGAEVKKPGASVKVSCKASRYSFTSYYLHWVRQAPGQGLEWMGIINPKTGDTSYAQKFQGRVTMTRDTSTTTVYMELSSLRSEDTAVYYCARDGYGSSARCLQLWGQGTLVTVSS VL: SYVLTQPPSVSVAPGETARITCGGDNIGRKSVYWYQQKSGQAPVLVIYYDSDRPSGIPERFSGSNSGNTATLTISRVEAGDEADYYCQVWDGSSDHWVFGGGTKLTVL	0.115
TINA-0211.0128 (antibody, V domains shown, Monospecific IgG4PE) VH: QVQLVQSGAEVKKPGASVKVSCKASRYSFTSYYMHWVRQAPGQGLEWMGIINPKSGSTSYAQKFQGRVTMTRDTSTSTVYMDLSSLRSEDTAVYYCARDGYGSSSRCLQLWGQGTLVTVSS VL: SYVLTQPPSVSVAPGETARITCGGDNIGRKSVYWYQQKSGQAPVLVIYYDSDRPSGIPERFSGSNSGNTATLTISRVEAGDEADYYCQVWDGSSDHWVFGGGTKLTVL	0.0447
